Target: bradykinin receptor of the B2 class (rat uterus) (Rattus norvegicus)
Construct: concentration effect curves to bradykinin (BK) on rat uterus in vitro; from tissue; host or cells: rat uterus
Sequence (P25023 whole entry): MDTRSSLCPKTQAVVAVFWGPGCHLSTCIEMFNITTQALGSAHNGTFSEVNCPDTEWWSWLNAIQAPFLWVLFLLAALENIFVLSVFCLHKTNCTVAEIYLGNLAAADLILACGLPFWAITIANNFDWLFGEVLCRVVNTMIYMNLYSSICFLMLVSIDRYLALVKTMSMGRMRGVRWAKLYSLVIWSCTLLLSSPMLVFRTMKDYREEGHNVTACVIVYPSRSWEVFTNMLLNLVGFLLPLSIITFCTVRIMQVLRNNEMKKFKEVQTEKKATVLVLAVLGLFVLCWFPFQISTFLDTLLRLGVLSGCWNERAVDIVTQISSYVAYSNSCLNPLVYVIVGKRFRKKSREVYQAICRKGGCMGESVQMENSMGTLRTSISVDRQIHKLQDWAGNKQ
Assay: Rat uterus (RU) in vitro, antagonism of bradykinin
Conditions: Table C; rat uterus; P.A. = Partial Agonist
Peptide text beside a SMILES is read from it.
Attribute Measured: pA2 MONOMER

Compound | Test Result
CC(C)C[C@H](NC(=O)[C@@H](CS)NC(=O)[C@H](CO)NC(=O)[C@H](Cc1ccccc1)NC(=O)CNC(=O)[C@@H]1C[C@@H](O)CN1C(=O)[C@@H]1CCCN1C(=O)[C@H](CCCNC(=N)N)NC(=O)[C@H](N)CCCNC(=N)N)C(=O)N[C@@H](CCCNC(=N)N)C(=O)O [CP-0146] (HELM PEPTIDE1{[dR].R.P.[Hyp].G.F.S.[dC].L.R}$$$$V2.0) | Inactive
CC(C)C[C@H](NC(=O)[C@@H](Cc1ccccc1)NC(=O)[C@H](CO)NC(=O)[C@H](Cc1ccccc1)NC(=O)[C@@H](CS)NC(=O)[C@@H]1C[C@@H](O)CN1C(=O)[C@@H]1CCCN1C(=O)[C@H](CCCNC(=N)N)NC(=O)[C@H](N)CCCNC(=N)N)C(=O)N[C@@H](CCCNC(=N)N)C(=O)O [CP-0173] (HELM PEPTIDE1{[dR].R.P.[Hyp].[dC].F.S.[dF].L.R}$$$$V2.0) | Inactive

###

Target or system bradykinin receptor of the B2 class (guinea-pig ileum) (Cavia porcellus): recorded Kb listed per item.
Peptide text beside a SMILES is read from it.

Compound | Test Result
CC(C)C[C@H](NC(=O)[C@@H](Cc1ccccc1)NC(=O)[C@H](CO)NC(=O)[C@H](Cc1ccccc1)NC(=O)CNC(=O)[C@@H]1C[C@@H](O)CN1C(=O)[C@@H]1CCCN1C(=O)[C@H](CS)NC(=O)[C@H](N)CCCNC(=N)N)C(=O)N[C@@H](CCCNC(=N)N)C(=O)O [CP-0141] (HELM PEPTIDE1{[dR].C.P.[Hyp].G.F.S.[dF].L.R}$$$$V2.0) | ~1 µM

Just so you know, measured Kb for CC(C)C[C@H](NC(=O)[C@@H](Cc1ccccc1)NC(=O)[C@H](CO)NC(=O)[C@H](CS)NC(=O)CNC(=O)[C@@H]1C[C@@H](O)CN1C(=O)[C@@H]1CCCN1C(=O)[C@H](CCCNC(=N)N)NC(=O)[C@H](N)CCCNC(=N)N)C(=O)N[C@@H](CCCNC(=N)N)C(=O)O [CP-0144] (HELM PEPTIDE1{[dR].R.P.[Hyp].G.C.S.[dF].L.R}$$$$V2.0) came out at ~0.501 µM

The measured Kb associated with CC(C)C[C@H](NC(=O)[C@@H](Cc1ccccc1)NC(=O)[C@H](CO)NC(=O)[C@H](Cc1ccccc1)NC(=O)CNC(=O)[C@@H]1C[C@@H](O)CN1C(=O)[C@@H]1CCCN1C(=O)[C@H](CCCNC(=N)N)NC(=O)[C@@H](N)CS)C(=O)N[C@@H](CCCNC(=N)N)C(=O)O [CP-0140] (HELM PEPTIDE1{C.R.P.[Hyp].G.F.S.[dF].L.R}$$$$V2.0) reads ~0.316 µM

###

Biological target: bradykinin receptor of the B2 class (rat uterus) (Rattus norvegicus)
Construct: concentration effect curves to bradykinin (BK) on rat uterus in vitro; from tissue; host or cells: rat uterus
Assay: Rat uterus (RU) in vitro, antagonism of bradykinin
Details: Table C; rat uterus; P.A. = Partial Agonist; read-out: pA2 MONOMER (converted)
Peptide text beside a SMILES is read from it.
Attribute Measured: Kb (µM)
Numbers only; they are read as µM.

compound CC(C)C[C@H](NC(=O)[C@@H](Cc1ccccc1)NC(=O)[C@H](CO)NC(=O)[C@H](Cc1ccccc1)NC(=O)CNC(=O)[C@@H]1C[C@@H](O)CN1C(=O)[C@@H]1CCCN1C(=O)[C@H](CCCNC(=N)N)NC(=O)[C@H](N)CS)C(=O)N[C@@H](CCCNC(=N)N)C(=O)O [CP-0149] (HELM PEPTIDE1{[dC].R.P.[Hyp].G.F.S.[dF].L.R}$$$$V2.0) , Kb observed: 0.0794
